meta.source: BindingDB's records for doi:10.1074/jbc.M113.528695

biological target: Nitric oxide synthase, endothelial (Bos taurus); assay: Polarization Assay; details: pH 7.5; 25 °C
Sequence (P29473 whole entry): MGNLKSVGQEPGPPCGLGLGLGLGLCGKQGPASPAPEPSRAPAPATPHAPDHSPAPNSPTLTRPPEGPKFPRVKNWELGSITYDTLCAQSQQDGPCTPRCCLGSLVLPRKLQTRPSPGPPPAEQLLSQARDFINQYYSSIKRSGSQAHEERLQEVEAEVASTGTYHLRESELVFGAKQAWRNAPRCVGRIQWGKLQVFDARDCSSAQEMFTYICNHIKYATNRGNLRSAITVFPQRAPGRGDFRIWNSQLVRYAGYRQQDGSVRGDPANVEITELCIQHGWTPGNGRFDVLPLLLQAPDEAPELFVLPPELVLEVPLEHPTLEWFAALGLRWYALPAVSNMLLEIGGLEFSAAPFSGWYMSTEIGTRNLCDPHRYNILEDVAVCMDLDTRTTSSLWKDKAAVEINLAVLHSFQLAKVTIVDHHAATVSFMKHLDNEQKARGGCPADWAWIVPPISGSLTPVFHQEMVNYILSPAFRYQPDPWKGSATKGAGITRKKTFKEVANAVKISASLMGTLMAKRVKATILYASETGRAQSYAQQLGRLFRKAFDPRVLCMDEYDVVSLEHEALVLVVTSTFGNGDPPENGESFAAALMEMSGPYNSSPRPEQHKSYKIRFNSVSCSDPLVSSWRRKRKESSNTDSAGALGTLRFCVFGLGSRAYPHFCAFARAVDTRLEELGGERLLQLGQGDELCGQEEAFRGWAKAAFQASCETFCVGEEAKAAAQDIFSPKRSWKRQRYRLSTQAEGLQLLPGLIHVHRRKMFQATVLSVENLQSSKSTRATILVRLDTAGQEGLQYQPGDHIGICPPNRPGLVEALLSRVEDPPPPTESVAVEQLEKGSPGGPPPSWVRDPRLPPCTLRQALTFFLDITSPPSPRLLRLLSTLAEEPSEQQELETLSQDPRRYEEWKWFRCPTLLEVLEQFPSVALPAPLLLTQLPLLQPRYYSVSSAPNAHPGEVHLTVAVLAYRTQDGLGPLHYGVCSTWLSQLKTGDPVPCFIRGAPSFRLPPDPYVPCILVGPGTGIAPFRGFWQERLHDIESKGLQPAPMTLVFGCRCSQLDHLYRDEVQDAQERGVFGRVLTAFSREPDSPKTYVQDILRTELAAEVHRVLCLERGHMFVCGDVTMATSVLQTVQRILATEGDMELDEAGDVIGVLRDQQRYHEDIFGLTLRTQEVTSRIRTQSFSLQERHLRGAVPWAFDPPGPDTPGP
pKd: −log10 of the molar value.
measureName: pKd

(1) H-TTATVTKYWF-OH [TTATVTKYWF]
(2) H-TTFTVTKYWF-OH [TTFTVTKYWF]
## Input From the recorded data, which exceeds the other in pKd: 1 or 2 ? Returns: label corresponding to the selected item.
## Output 1
